Experiment: Quantitative High-Throughput drug screen in 47 multiple myeloma cell lines against the NCATS MIPE library collection: OCIMY1_PLB cell viability assay (AID 1918979); note: nearly all actives have a fitted effect of over 35% in size;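 for viability: 100% = DMSO-only wells and 0% = cell-free media-only wells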
Settings: OCI-MY1 myeloma viability, CellTiter-Glo ATP, 48 h; series mostly up to 45.8 µM
Inconclusive results are not listed. Activity calls are given as the source filed them. Calls come from the whole dose curve; as a rule, active = well fitted cell-killing curve with a large enough effect; inconclusive = small, poorly fitted or top-dose-only effect, or effect the other way; inactive = no such curve, though single readings can be large or run the other way.
Response enum: true for active, false for inactive

q: Give the logged outcome of this assay for the following compound: CC(C)(N)c1ccc(-c2nc3ccccc3nc2-c2ccccc2)cc1
a: true

q: Give the logged outcome of this assay for the following compound: COc1ccc(S(=O)(=O)Nc2cc(-c3c(O)ccc4ccccc34)c(O)c3ccccc23)cc1
a: true

q: Give the logged outcome of this assay for the following compound: Nc1ccc(C(=O)Nc2cccc(-c3nc(N4CCOCC4)c4oc5ncccc5c4n3)c2)cn1
a: true

q: Give the logged outcome of this assay for the following compound: COC(=O)[C@@H]1CC2=CC(=O)CC[C@]2(C)[C@@]23O[C@@H]2C[C@@]2(C)[C@H](CC[C@@]24CCC(=O)O4)[C@@H]13
a: false

q: Give the logged outcome of this assay for the following compound: C=CC[C@@H]1C=C(C)C[C@H](C)C[C@H](OC)[C@H]2O[C@@](O)(C(=O)C(=O)N3CCCC[C@H]3C(=O)O[C@H](C(C)=C[C@@H]3CC[C@H](O)[C@H](OC)C3)[C@@H](C)[C@@H](O)CC1=O)[C@@H](C)C[C@@H]2OC
a: true

q: Give the logged outcome of this assay for the following compound: Nc1nc(=O)n([C@H]2C[C@H](O)[C@@H](CO)O2)cc1F
a: false

q: Give the logged outcome of this assay for the following compound: CC(=O)ON=C1C(c2c(O)[nH]c3cc(Br)ccc23)=Nc2ccccc21
a: true

q: Give the logged outcome of this assay for the following compound: CN[C@H]1[C@@H](O)[C@@H]2O[C@@H]3O[C@H](C)CC(=O)[C@]3(O)O[C@@H]2[C@@H](NC)[C@H]1O
a: true

----------
Assay: qHTS for identification of novel therapeutic agents for treatment of microphthalmiaassociated transcription factor (MiT) renal cell carcinoma (RCC) (AID 1963991);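 note: curves scaled with 100% = DMSO viability and 0% = empty wells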
Conditions: TFE3-RCC UOK109 viability, CellTiter-Glo, 48 h; measured here: UOK109 Z-AUC; stronger effect = lower value
Protocol: PI: Marston Linehan Ph.D. Urologic Oncology Branch, Center for Cancer Research (CCR) National Cancer Institute (NCI), National Institute of Health (NIH), Bethesda, Maryland […] 6; Detection; Luminescence; ViewLux plate reader (PerkinElmer). […] 1. Quantitative high-throughput screening (qHTS) of 1912 pharmacologically defined small molecule compounds was conducted on three TFE3-fusion cell lines bearing three different fusion partners (UOK109, UOK124, UOK145). […]
Inconclusive results are not listed.
Assign z-score to each entry below.

q: Consider the compound CC(C)C[C@H](NC(=O)CNC(=O)c1cc(Cl)ccc1Cl)B1OC(=O)CC(CC(=O)O)(C(=O)O)O1 (some centres undefined) and give its measured z-score.
a: -1.14

q: Consider the compound C[C@H](CCC(=O)O)[C@H]1CCC2C3C[C@H](O)[C@@H]4C[C@H](O)CC[C@]4(C)C3CC[C@@]21C (some centres undefined) and give its measured z-score.
a: 0.156

q: Consider the compound CCN1CCN(C(=O)N[C@H](C(=O)N[C@@H]2C(=O)N3C(C(=O)O)=C(CSc4nnnn4C)CS[C@@H]23)c2ccc(O)cc2)C(=O)C1=O and give its measured z-score.
a: 3.06

q: Consider the compound CNC(=O)Nc1ccc(-c2nc(N3CC4CCC(C3)O4)c3cnn(C4CCC5(CC4)OCCO5)c3n2)cc1 and give its measured z-score.
a: -1.43

q: Consider the compound Nc1nc(=O)n([C@H]2CSC(CO)O2)cc1F (some centres undefined) and give its measured z-score.
a: 0.159

q: Consider the compound CC(=O)OC[C@@H]1O[C@@H](n2ccc(=O)[nH]c2=O)[C@H](OC(C)=O)[C@H]1OC(C)=O and give its measured z-score.
a: 0.396

q: Consider the compound CC(C)N(CC[C@H](c1ccccc1)c1cc(CO)ccc1O)C(C)C and give its measured z-score.
a: 0.828

q: Consider the compound Cc1cn([C@@H]2O[C@H](CO)[C@@H](O)[C@H]2F)c(=O)[nH]c1=O and give its measured z-score.
a: 0.17

q: Consider the compound O=C1NC(=O)[C@@H](c2cn3c4c(cccc24)CCC3)[C@H]1c1c[nH]c2ccccc12 and give its measured z-score.
a: -1.28

----------
Test system: MKL-2
Test: qHTS assay to identify novel small-molecules to repurpose for Merkel cell carcinoma treatment (AID 1296009); note: nearly all actives have a fitted effect of over 60% in size
Conditions: MCC and control cell lines, CellTiter-Glo viability, 72 h; series mostly up to 46 µM
Inconclusive results are not listed. Activity calls are given as the source filed them. Calls follow the shape of the dose curve; as a rule, active = well fitted inhibition curve with a large enough effect; inconclusive = small, poorly fitted or top-dose-only effect; inactive = flat fitted curve, though single readings scatter.
Response enum: class 1 (active), class 0 (inactive)

q: Give the logged outcome of this assay for the following compound: O=c1ccn([C@@H]2O[C@H](CO)[C@H](O)[C@@H]2F)c(=O)[nH]1
a: class 0

q: Give the logged outcome of this assay for the following compound: CCCCCCCN(CC)CCCC(O)c1ccc(NS(C)(=O)=O)cc1 (stereo unspecified)
a: class 0

q: Give the logged outcome of this assay for the following compound: OCCNC1CCCc2c1[nH]c1ccc(-c3ccccc3)cc21 (stereo unspecified)
a: class 1

q: Give the logged outcome of this assay for the following compound: O=C1c2cccc(O)c2C(=O)c2c(O)cc(CO)cc21
a: class 0

q: Give the logged outcome of this assay for the following compound: C=C1C(=O)O[C@H]2[C@@H]1CCC(C)=CCC[C@@]1(C)O[C@@H]21
a: class 1

q: Give the logged outcome of this assay for the following compound: OCc1ccccc1O[C@@H]1O[C@H](CO)[C@H](O)[C@H](O)[C@H]1O
a: class 0

q: Give the logged outcome of this assay for the following compound: CC(=O)NC(CS)C(=O)O (stereo unspecified)
a: class 0

q: Give the logged outcome of this assay for the following compound: c1coc(CNc2ncnc3nc[nH]c23)c1
a: class 0

q: Give the logged outcome of this assay for the following compound: Cn1cnc2c(F)c(Nc3ccc(Br)cc3F)c(C(=O)NOCCO)cc21
a: class 0

q: Give the logged outcome of this assay for the following compound: CC(=O)SCC(Cc1ccccc1)C(=O)NCC(=O)OCc1ccccc1 (stereo unspecified)
a: class 1

q: Give the logged outcome of this assay for the following compound: CC(=O)O[C@]1(C(C)=O)CC[C@H]2[C@@H]3C=C(C)C4=CC(=O)CC[C@]4(C)[C@@H]3CC[C@@]21C
a: class 1

----------
Assay: Quantitative High-Throughput drug screen in 47 multiple myeloma cell lines against the NCATS MIPE library collection: FR4_PLB cell viability assay (AID 1918924; note: nearly all actives have a fitted effect of over 35% in size)
Conditions: FR4_PLB myeloma cells viability, CellTiter-Glo ATP, 48 h; series mostly up to 45.8 µM
Results filed as inconclusive are left out. Activity calls are given as the source filed them. The call rests on the fitted dose curve; in most records, active means well fitted cell-killing curve with a large enough effect; inconclusive means small, poorly fitted or top-dose-only effect, or effect the other way; inactive means no such curve, though single readings can be large or run the other way.
Response enum: 1.0 = active, 0.0 = inactive

q: Give the logged outcome of this assay for the following molecule: C[C@@H](Cc1cc2c(c(C(N)=O)c1)N(CCCO)CC2)NCCOc1ccccc1OCC(F)(F)F
a: 0.0

q: Give the logged outcome of this assay for the following molecule: O=c1ccn([C@@H]2O[C@H](CO)[C@H](O)[C@@H]2F)c(=O)[nH]1
a: 0.0

q: Give the logged outcome of this assay for the following molecule: Oc1cc2c(cc1O)C1c3ccc(O)c(O)c3OCC1(O)C2 (stereo not drawn)
a: 0.0

q: Give the logged outcome of this assay for the following molecule: CC(C)n1cnc2c(NCCc3ccc(O)cc3)nc(-c3csc4ccccc34)nc21
a: 1.0

q: Give the logged outcome of this assay for the following molecule: c1ccc2c(Oc3nc(Nc4ccc(N5CCOCC5)cc4)c4ncn(C5CCCCC5)c4n3)cccc2c1
a: 0.0

q: Give the logged outcome of this assay for the following molecule: COc1ccc2cc([S+]([O-])Cc3ncc(C)c(OC)c3C)nc2c1
a: 0.0

q: Give the logged outcome of this assay for the following molecule: Nc1ccn(C[C@@H](CO)OCP(=O)(O)O)c(=O)n1
a: 0.0

q: Give the logged outcome of this assay for the following molecule: C=CC1=C(C(=O)O)N2C(=O)[C@@H](NC(=O)C(=NO)c3csc(N)n3)[C@H]2SC1
a: 0.0

q: Give the logged outcome of this assay for the following molecule: NC[C@H]1O[C@H](O[C@H]2[C@@H](O)[C@@H](O[C@H]3O[C@H](CO)[C@@H](O)[C@H](N)[C@@H]3O)[C@H](N)C[C@@H]2N)[C@H](N)C[C@H]1O
a: 0.0

q: Give the logged outcome of this assay for the following molecule: C=CC(=O)Nc1cc(NC(=O)c2ccc(C)c(NC(=O)c3ccno3)c2)cc(C(F)(F)F)c1
a: 1.0

q: Give the logged outcome of this assay for the following molecule: Cn1c(Nc2ccc(C(F)(F)F)cc2)nc2cc(Oc3ccnc(-c4ncc(C(F)(F)F)[nH]4)c3)ccc21
a: 1.0

q: Give the logged outcome of this assay for the following molecule: CCCCC(=O)O[C@]1(C(=O)CO)[C@@H](C)C[C@H]2[C@@H]3CCC4=CC(=O)C=C[C@]4(C)[C@@]3(F)[C@@H](O)C[C@@]21C
a: 0.0

q: Give the logged outcome of this assay for the following molecule: Cc1ccc2nc(NCCN)c3ncc(C)n3c2c1
a: 1.0

q: Give the logged outcome of this assay for the following molecule: COc1ccc2c(c1OC)C(=O)OC2[C@H]1c2c(cc3c(c2OC)OCO3)CCN1C (stereo partly drawn)
a: 1.0

q: Give the logged outcome of this assay for the following molecule: N#Cc1ccc(COC[C@H]2O[C@@H](n3c(NCc4ccc(Cl)c(Cl)c4)nc4c(N)ncnc43)[C@@H](O)[C@@H]2O)cc1
a: 1.0

q: Give the logged outcome of this assay for the following molecule: N#Cc1c(NC(=O)c2cccc3ccccc23)sc2c1CCCC2
a: 1.0

q: Give the logged outcome of this assay for the following molecule: Cc1cc(O)c2c(c1)C(=O)c1cccc(O)c1C2=O
a: 0.0

q: Give the logged outcome of this assay for the following molecule: Oc1ccc(-c2ccc(-c3cc(Nc4cccc(CNC5CC5)c4)n[nH]3)cc2)c(O)c1
a: 1.0

q: Give the logged outcome of this assay for the following molecule: O=C(O)CCCCC(CCSCc1ccccc1)SCc1ccccc1 (stereo not drawn)
a: 0.0

q: Give the logged outcome of this assay for the following molecule: CN(C)c1ccc(C(=O)NCCCCCCC(=O)NO)cc1
a: 1.0

q: Give the logged outcome of this assay for the following molecule: C[C@H](NCc1ccc2c(c1)nc(NC(=O)c1ccc(-c3cn[nH]c3)s1)n2CCc1ccccc1)C(C)(C)C
a: 1.0

q: Give the logged outcome of this assay for the following molecule: Cc1ccc(O)c(C(CCN(C(C)C)C(C)C)c2ccccc2)c1 (stereo not drawn)
a: 0.0

q: Give the logged outcome of this assay for the following molecule: NC(=O)N1CCC(CC(=O)N2CCC([C@H]3c4ncc(Br)cc4CCc4cc(Cl)cc(Br)c43)CC2)CC1
a: 1.0

q: Give the logged outcome of this assay for the following molecule: COc1cc2c(cc1O)CCC1C2CC[C@@]2(C)C1CC[C@@H]2O (stereo partly drawn)
a: 1.0

q: Give the logged outcome of this assay for the following molecule: NC(=O)Nc1sc(-c2ccc(F)cc2)cc1C(N)=O
a: 1.0

q: Give the logged outcome of this assay for the following molecule: CCc1nc(-c2cccc(C)c2)c(-c2ccnc(NC(=O)c3ccccc3)c2)s1
a: 1.0

q: Give the logged outcome of this assay for the following molecule: CN[C@@H]1C[C@H]2O[C@@](C)([C@H]1OC)n1c3ccccc3c3c4c(c5c6ccccc6n2c5c31)C(=O)N[C@H]4O
a: 1.0

q: Give the logged outcome of this assay for the following molecule: CCN(CC)Cc1ccc2cc(COC(=O)Nc3ccc(C(=O)NO)cc3)ccc2c1
a: 1.0

q: Give the logged outcome of this assay for the following molecule: CC(C)[C@H](CO)Nc1nc(Nc2cccc(Cl)c2)c2ncn(C(C)C)c2n1
a: 1.0

q: Give the logged outcome of this assay for the following molecule: C=CC(=O)Nc1ccc2ncnc(Nc3ccc(OCc4cccc(F)c4)c(Cl)c3)c2c1
a: 1.0

q: Give the logged outcome of this assay for the following molecule: Cc1coc2c1C(=O)C(=O)c1c-2ccc2c(C)cccc12
a: 1.0

q: Give the logged outcome of this assay for the following molecule: COc1cc(C=CC(=O)CC(=O)C=Cc2ccc(O)c(OC)c2)ccc1O
a: 1.0

q: Give the logged outcome of this assay for the following molecule: CC(=O)N[C@H]1[C@@H]([C@H](O)[C@H](O)CO)OC(C(=O)O)=C[C@@H]1N=C(N)N
a: 0.0

q: Give the logged outcome of this assay for the following molecule: C[C@H](NC(=O)Cc1cc(F)cc(F)c1)C(=O)N[C@H](C(=O)OC(C)(C)C)c1ccccc1
a: 0.0

q: Give the logged outcome of this assay for the following molecule: CN[C@H]1[C@@H](O)[C@@H]2O[C@@H]3O[C@H](C)CC(=O)[C@]3(O)O[C@@H]2[C@@H](NC)[C@H]1O
a: 1.0

q: Give the logged outcome of this assay for the following molecule: CCN(CC)CCNC(=O)c1c(C)[nH]c(C=C2C(=O)Nc3ccc(F)cc32)c1C
a: 1.0

q: Give the logged outcome of this assay for the following molecule: FC(F)(F)c1ccc(Nc2nc3ccc(Oc4ccnc(-c5ncc(C(F)(F)F)[nH]5)c4)cc3[nH]2)cc1
a: 1.0

q: Give the logged outcome of this assay for the following molecule: COc1cc(C(C)C)c(Oc2cnc(NC(CO)CO)nc2N)cc1I
a: 1.0
